Target: Voltage-gated L-type calcium channel (Cavia porcellus)
Assay: Inhibition of [3H]nitrendipine binding to guinea pig ileal longitudinal smooth muscle
Recorded IC50 by entry
Quick note: give the figure in nM, leave out the unit.

// below: answered molecules
CO/C(O)=C1\C(C)=NC(C)=C(C(=O)OCC(C)C)C1c1ccccc1 (stereo not drawn): 0.25
CO/C(O)=C1\C(C)=NC(C)=C(C(=O)OCC(C)C)C1c1ccc(Cl)cc1 (stereo not drawn): 2.8
CO/C(O)=C1\C(C)=NC(C)=C(C(=O)OCC(C)C)C1c1cccc([N+](=O)[O-])c1 (stereo not drawn): 0.0081
CO/C(O)=C1\C(C)=NC(C)=C(C(=O)OCC(C)C)C1c1ccc(F)cc1 (stereo not drawn): 1.5
CO/C(O)=C1\C(C)=NC(C)=C(C(=O)OCC(C)C)C1c1ccccc1C(F)(F)F (stereo not drawn): 0.027
CO/C(O)=C1\C(C)=NC(C)=C(C(=O)OCC(C)C)C1c1cccc(OC)c1 (stereo not drawn): 2.3

Find the recorded IC50 belonging to CO/C(O)=C1\C(C)=NC(C)=C(C(=O)OCC(C)C)C1c1cccc(C(F)(F)F)c1 (stereo not drawn) and report it.
0.14

Next molecule up: CO/C(O)=C1\C(C)=NC(C)=C(C(=O)OCC(C)C)C1c1cccc(C#N)c1 (stereo not drawn)
0.013
